Origin of values: paper PMC4336329

Recorded hERG current change (%, negative = inhibition) at 10uM values for a group of compounds are listed next.
Target: human ether-à-go-go-related gene (hERG) potassium channel (human, UniProt Q12809);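 also: peak tail current of the secondary pulse compared with the same well before compound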
Sequence (Q12809 whole entry, looked up): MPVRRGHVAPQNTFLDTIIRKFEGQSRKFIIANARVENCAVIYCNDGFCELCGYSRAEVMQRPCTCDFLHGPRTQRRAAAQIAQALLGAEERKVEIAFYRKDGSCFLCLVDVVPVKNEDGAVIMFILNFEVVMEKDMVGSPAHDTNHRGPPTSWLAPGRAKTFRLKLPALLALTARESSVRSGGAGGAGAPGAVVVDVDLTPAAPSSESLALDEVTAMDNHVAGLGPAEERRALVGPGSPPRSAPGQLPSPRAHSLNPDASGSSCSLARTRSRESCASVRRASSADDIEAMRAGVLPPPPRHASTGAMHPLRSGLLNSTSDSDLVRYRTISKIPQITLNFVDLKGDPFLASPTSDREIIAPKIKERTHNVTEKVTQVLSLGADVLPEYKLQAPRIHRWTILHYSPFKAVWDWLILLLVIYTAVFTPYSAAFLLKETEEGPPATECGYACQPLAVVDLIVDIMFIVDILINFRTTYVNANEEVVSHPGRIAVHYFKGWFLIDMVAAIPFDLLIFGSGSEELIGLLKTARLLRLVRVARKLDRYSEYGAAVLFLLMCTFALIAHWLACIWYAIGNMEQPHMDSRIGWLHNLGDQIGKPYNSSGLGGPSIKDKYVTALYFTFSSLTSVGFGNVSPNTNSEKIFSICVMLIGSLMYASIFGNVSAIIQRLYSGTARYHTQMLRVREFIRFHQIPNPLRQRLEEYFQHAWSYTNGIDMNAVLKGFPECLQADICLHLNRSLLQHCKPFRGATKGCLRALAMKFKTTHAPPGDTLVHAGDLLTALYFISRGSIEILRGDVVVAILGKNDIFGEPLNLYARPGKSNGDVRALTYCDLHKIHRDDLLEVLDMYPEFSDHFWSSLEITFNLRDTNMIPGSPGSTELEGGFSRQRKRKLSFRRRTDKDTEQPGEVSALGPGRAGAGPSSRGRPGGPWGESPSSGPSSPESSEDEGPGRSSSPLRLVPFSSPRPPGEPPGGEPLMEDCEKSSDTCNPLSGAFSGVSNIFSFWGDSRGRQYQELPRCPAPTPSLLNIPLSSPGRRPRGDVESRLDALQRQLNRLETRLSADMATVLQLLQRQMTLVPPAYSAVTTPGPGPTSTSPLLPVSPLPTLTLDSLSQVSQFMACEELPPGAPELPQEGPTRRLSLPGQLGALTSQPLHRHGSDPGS
Assay: primary screen, population patch clamp on CHO cells stably expressing hERG; higher = less effect of the substance
About 14,000 (4.5%) of roughly 310,000 compounds showed an effect of 50% or more. Effects have a minus sign here. Shown is part of a subset that was picked to be rich in strong results.
Unit % implied. Number only.

Completed entries (count: 4):
> print(dat)
                                   compound  reading
1  Cc1sc2ncn(CC(=O)N3CCN(c4ccccc4)CC3)c(=O)c2c1S(=O)(=O)N1CCOCC1      -16
2  Cc1ccc(S(=O)(=O)N2CCC(C(=O)OCC(=O)NCCc3ccccc3)CC2)cc1C    -8.07
3  COc1ccc(CCNC(=O)/C(=C/c2cccnc2)NC(=O)c2ccccc2)cc1OC    -3.35
4  Cc1oc(-c2cccc3ccccc23)nc1CN1CCN(c2ncnc3ccccc23)CC1    -11.9

Entry `COc1cc(C(=O)NCCOc2ccc(F)cc2)c(Br)c(OC)c1OC` has what hERG current change (%, negative = inhibition) at 10uM? 3.42

Here is the next compound: `Cc1oc(-c2cc(F)ccc2F)nc1CN1CCN(c2ncnc3ccccc23)CC1` -43.6

// next record `COc1ccc(-c2nc(CN3CCN(Cc4cccc(F)c4)CC3)c(C)o2)cc1` -46.6

Now the compound `COc1ccc(-c2nc(CN3CCN(c4cc(C)nc(C)c4)CC3)c(C)o2)c2ccccc12` -73.6
